# System: CCRF-CEM
# test method notes: NCI tumour cell line growth inhibition, 48 h
Activity calls are given as the source filed them. Cut-off read from the data, not from the text of the source: active = GI50 up to about 1.1 µM and inactive = higher.
Write down the outcome that applies. Available outcomes: 1 (active), 0 (inactive)

What classification did Cc1ccc(-c2cn3c(nc4ccccc43)c(-c3ccccc3)n2)cc1 end up with in this test?
0

Any idea what this test logged for C=C(C)[C@@]1(O[Si](C)(C)C)CCCC[C@@H]1CC(Sc1ccccc1)Sc1ccccc1 ?
0

Assay outcome for COc1ccc(-c2cc(-c3cc(F)c(Cl)cc3Cl)[nH]n2)cc1OC : what was it?
0

Check the results log: what was the call for Cc1cc2c(cc1C)[n+]([O-])c(C#N)c(Cl)[n+]2[O-] ?
0

Which outcome was assigned to Cc1cccc(CC(Cc2ccc(C)cc2C(=O)O)C(=O)O)c1 (stereo not given) in this test?
0

Each compound tested received a call. Report the one for CC(=O)OCC1C(=O)OCC1C(=O)N1Cc2cc3ccccc3nc2C1 (stereo not given) .
1

Please indicate how the test categorized CCCCN(CCCC)CC(=O)c1ccc2cc(Cl)c3ccccc3c2c1 .
0

GET /call?item= O=C(CSc1nnc(-c2ccc(/N=C\c3ccc(Cl)cc3)cc2)o1)Nc1ccc(Cl)cc1 returns the recorded outcome of this test.
0

Hi team, can someone confirm the assay call for O=C1C(Cl)=C(Nc2ccc(S(=O)(=O)O)cc2)C(=O)c2ccccc21 ?
0

Hello, I am checking results. What call was entered for CN(C)CCC(/C=C/c1ccccc1)=N\Nc1ccc(Cl)cc1 ?
0

Name the outcome recorded for Cc1ccc(S(=O)(=O)OCC23CCC(CC2)C2CC23)cc1 (stereo not given) in the assay.
0

How was COc1cc(/C=C2\N=C(c3ccccc3)N(c3cc4cc(Sc5ccccc5)ccc4[nH]3)C2=O)cc(OC)c1OC classified in this test?
0

What outcome does the record of this test show for Cc1[nH]n(-c2nc(O)c(-c3ccccc3)c(=O)[nH]2)c(=O)c1CCO ?
0

Recorded test outcome, item CC1=Nc2c(O)nc(S)nc2NC(c2c(Cl)cccc2Cl)C1 (stereo not given)
1

Tell me the recorded outcome of this test for O=C(O)c1cc2ccccc2c(/N=N/c2c([N+](=O)[O-])cc([N+](=O)[O-])cc2S(=O)(=O)O)c1O .
0

Kindly provide the recorded test outcome for the following compound: O=C(CN(c1ccc(S(=O)(=O)O)cc1)c1ccc(S(=O)(=O)O)cc1)Nn1cnc2ccc(S(=O)(=O)N(c3ccc(S(=O)(=O)O)cc3)c3ccc(S(=O)(=O)O)cc3)cc2c1=O
0

Hello, I am checking results. What call was entered for COc1ccc2oc3c(C)cc4c(OC)nnc(OC)c4c3c2c1 ?
0

# lookup: test call for C=CCCC1(CCP(=O)(c2ccccc2)c2ccccc2)OCCO1
0

// outcome(item) with item = c1ccc(C2(c3ccccc3)S/C(=C3/SC(c4ccccc4)(c4ccccc4)c4ccccc43)c3ccccc32)cc1
0

Write down the call the test reported for this compound. Item: COc1ccc(-c2c(C(C)=O)c(C)n(C3OC(COC(C)=O)C(OC(C)=O)C(OC(C)=O)C3OC(C)=O)c(=S)c2C#N)cc1 (stereo not given)
0

What classification did CN1Cc2c(ccc3c2OCO3)[C@@H]2[C@H](O)Cc3cc4c(cc3[C@@H]21)OCO4 end up with in this test?
0

Please let me know the test result on file for COC(=O)/N=[N+](\[O-])C(c1ccc(OC)cc1)C1CCCCC1 (stereo not given) .
0

Which outcome did this test record for the compound O=C(CC1(O)C(=O)Nc2c(Cl)cc(Cl)cc21)c1ccc([N+](=O)[O-])cc1 (stereo not given) ?
0

How did this test come out for O=c1cccccc1NCCCCCCCCNc1cccccc1=O ?
0

Assay outcome for O=C(NCCC1CN(S(=O)(=O)C(F)(F)F)c2ccccc21)OCc1ccccc1 (stereo not given) : what was it?
0

Query: recorded result category for CC(=O)c1cc2c(Br)cccc2oc1=O in this test
0

Tell me the recorded outcome of this test for CSc1nc(SC)c2c(C(N)=S)n[nH]c2n1 .
0

Name the outcome recorded for Cn1c(=O)nc2n(-c3ccc(Cl)cc3)c(-c3ccccc3)c(-c3ccccc3)nc-2c1=O in the assay.
0

Look up the recorded call for c1ccc(C2=NN=C3C(c4ccccc4)=Nc4ccccc4N3C2)cc1 in this test.
0

Hi, sorry to bother you, what did the test record for COc1ccc(OC2(c3cc(OC)ccc3OC)OC(=O)c3ccccc32)cc1 (stereo not given) ?
0

I would be grateful if you could indicate the recorded call for COc1ccc(-c2nc3ccc([N+](=O)[O-])cc3c(=O)[nH]2)cc1 .
0

Check the results log: what was the call for Oc1ccc(-c2c3ccccc3c(-c3ccc(OCCBr)cc3)c3ccccc23)cc1 ?
0

Call for entry COc1cc(/C=C2\N=C(c3ccccc3)N(c3nc4ccc(Sc5ccccc5)cc4[nH]3)C2=O)cc(OC)c1OC :
0

Query: recorded result category for C/C(CC(=O)Nc1ccc(Cl)c(Cl)c1)=N/NC(=O)C[N+](C)(C)C in this test
0

How was COc1cc(/C=C2\CCC(C)/C(=C\c3cc(OC)c(OC)c(OC)c3)C2=O)cc(OC)c1OC (stereo not given) classified in this test?
0

Could you kindly confirm the outcome this assay logged for Cn1ccnc1Cn1cc(-c2cccc(-c3cn[nH]c3)c2)cn1 ?
0

Dear colleague, could you share the recorded outcome for Cc1cc([N+](=O)[O-])ccc1Nc1cccc(Cl)c1C when you have a moment?
0

Answer briefly: the call reported for CC(N/N=C(\S)N1CCN(c2ccccn2)CC1)c1nccc2ccccc12 (stereo not given) in this assay.
1

Could you please tell me the result logged for COc1cc(/C=C/c2ccc(OC)c(OC)c2OC)cc(OC)c1OC in this assay?
0

# lookup: test call for O=c1c(C(c2ccco2)c2c(O)oc3ccccc3c2=O)c(O)oc2ccccc12
0
